Ref: PubChem BioAssay AID1159580

measurement.protocol: chemical genetic growth profiling, strain panel (AID 1159580);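 also: tested at 20 µM; growth read once vehicle control cultures reached saturation at 30 °C; 1 = growth at the plate median or of vehicle wells; lower values mean less growth of the strain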
condition.label: S. cerevisiae deletion strains, growth OD, locus YNL183C, strain NPR1, hits give low values
The whole screen tested about 5,500 compounds, of which about 2,000 (36%) were called active. Roughly 18% stayed inconclusive and do not appear here. The list shows a part of the results.
measure.name: normalized growth

[
  {
    "compound": "OC[C@H]1O[C@H](O[C@]2(CCl)O[C@H](CCl)[C@@H](O)[C@@H]2O)[C@H](O)[C@@H](O)[C@H]1Cl",
    "test.result": 0.895
  },
  {
    "compound": "C=C(C)[C@H]1COc2cc3oc(=O)ccc3cc2O1",
    "test.result": 0.925
  },
  {
    "compound": "CN[C@@H]1[C@@H](O)C(OC2[C@@H](N)C[C@@H](N)[C@H](O[C@H]3O[C@H](C(C)O)[C@@H](O)[C@H](O)[C@H]3N)[C@H]2O)OC[C@]1(C)O (stereo not given in full)",
    "test.result": 0.942
  },
  {
    "compound": "Oc1c(Br)cc(Br)cc1C=Nc1ccc(Sc2ccccc2)nc1Sc1ccccc1",
    "test.result": 0.236
  },
  {
    "compound": "CC(C)(C)NCC(O)c1cc(O)cc(O)c1 (stereo not given)",
    "test.result": 0.943
  },
  {
    "compound": "CCOC(=O)c1c(C)cc(OC)cc1O",
    "test.result": 0.872
  },
  {
    "compound": "FC(F)(F)c1cccc(NC(=S)NN=C2CCCCCC2)c1",
    "test.result": 0.949
  },
  {
    "compound": "Cc1[nH]ccc2c1[nH]c1cc(=O)ccc12",
    "test.result": 0.97
  },
  {
    "compound": "COC1=CC(=O)C(O)=C/C1=C\\C=C\\c1ccccc1",
    "test.result": -0.000893
  },
  {
    "compound": "CCc1cc(C(N)=S)ccn1",
    "test.result": 0.999
  },
  {
    "compound": "Cc1ccc(C)n1-c1ccc(/C=C2/C(=O)Nc3ccccc32)cc1",
    "test.result": 0.936
  },
  {
    "compound": "O=C1Nc2ccccc2/C1=C/c1ccc(Oc2ccccc2)nc1",
    "test.result": 0.811
  },
  {
    "compound": "COC(=O)c1c(C)cc(O)cc1O",
    "test.result": 0.917
  },
  {
    "compound": "CCC(=O)c1c(O)cc(O)cc1O",
    "test.result": 0.953
  },
  {
    "compound": "CC(C)(C)C(=O)NC(=S)N/N=C\\c1cc(Cl)cc(Cl)c1O",
    "test.result": 0.269
  }
]

====

Measured normalized growth, listed per entry.
measurement.protocol: chemical genetic growth profiling, strain panel (AID 1159580);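 also: tested at 20 µM; growth read once vehicle control cultures reached saturation at 30 °C; 1 = growth at the plate median or of vehicle wells; lower values mean less growth of the strain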
condition.label: S. cerevisiae deletion strains, growth OD, locus YNL271C, strain bni1, hits give low values
In all, about 5,500 compounds went through this assay and about 2,000 (36%) were called active. Inconclusive results (about 18%) are left out. The list shows a part of the results.
measure.name: normalized growth

[
  {
    "molecule": "O=c1cc(-c2ccc(O)cc2)oc2cc(O[C@@H]3O[C@H](CO)[C@@H](O)[C@H](O)[C@H]3O)cc(O)c12",
    "test.result": 0.975
  },
  {
    "molecule": "CC12CCC3c4ccc(OC(=O)c5ccccc5)cc4CCC3C1CCC2O (configuration not stated)",
    "test.result": 0.992
  },
  {
    "molecule": "CN[C@@H]1C(O)[C@@H](O[C@@H]2[C@@H](O)[C@H](O[C@H]3OC(CN)=CC[C@H]3N)[C@@H](N)C[C@H]2N)OC[C@]1(C)O (some centres not stated)",
    "test.result": 1
  },
  {
    "molecule": "COC(=O)c1c(C)cc(OC)cc1O",
    "test.result": 0.978
  },
  {
    "molecule": "CCC(c1ccc(O)cc1)C(CC)c1ccc(O)cc1 (configuration not stated)",
    "test.result": 0.985
  },
  {
    "molecule": "COc1ccc2c(c1C(C)C)CCC1C(C)(C)C(=O)CCC21C (configuration not stated)",
    "test.result": 0.977
  },
  {
    "molecule": "Cc1[nH]ccc2c1[nH]c1cc(=O)ccc12",
    "test.result": 0.988
  },
  {
    "molecule": "COc1ccc(-c2cc(=O)c3c(O)cc(O[C@H]4O[C@H](CO[C@@H]5O[C@@H](C)[C@H](O)[C@@H](O)[C@H]5O)[C@@H](O)[C@H](O)[C@H]4O)cc3o2)cc1",
    "test.result": 1.02
  },
  {
    "molecule": "NC(=O)CN1CCCC1=O",
    "test.result": 1.01
  },
  {
    "molecule": "Cc1cc(OC(=O)c2c(C)cc(OC(=O)c3c(C)cc(O)cc3O)cc2O)cc(O)c1C(=O)O",
    "test.result": 0.985
  },
  {
    "molecule": "C[C@]12CCC3c4ccc(O)cc4CCC3C1CC[C@@H]2O (some centres not stated)",
    "test.result": 0.977
  },
  {
    "molecule": "C[C@@H]1CC[C@@]2(OC1)O[C@H]1CC3C4CC[C@H]5C[C@@H](O)CC[C@]5(C)C4CC[C@]3(C)[C@H]1[C@@H]2C (some centres not stated)",
    "test.result": 0.983
  }
]
